Ref: the supplement of paper PMC8285479

system: NCI-H1944; test: normalised cell viability (NPI; 0 = phenylarsine oxide control, 1 = DMSO control) (fraction of DMSO control); higher = more viable cells (less compound toxicity); conditions: glucocorticoid arm: hydrocortisone 2.75 uM co-treatment; compound 5 µM; 6 days
Structures can show the parent of a compound that is named as a salt. The full ranking holds about 1,900 compounds; the median of “normalised cell viability (NPI; 0 = phenylarsine oxide control, 1 = DMSO control)” is about 1, and the lowest 2% start at about 0.039. For the sample, the lowest values were picked, then their nearest neighbours and some compounds at random.
Exercise: for every item that follows, state its recorded normalised cell viability.
API note: the answer field is a bare number with no unit suffix.

Entry O=C1Nc2ccc(I)cc2C1=Cc1cc(Br)c(O)c(Br)c1 : reported normalised cell viability = ?
1.11

Give its normalised cell viability value. Item: CN1CCc2c(c3ccccc3n2Cc2ccc(C(=O)NO)cc2)C1 [Tubastatin A HCl]
0.859

Need normalised cell viability, item CN1CC2c3ccccc3Oc3ccc(Cl)cc3C2C1 (configuration not stated)
1.02

I have this molecule here, Cc1cc(Cn2cnc3c2C[C@@H](C(=O)O)N(C(=O)C(c2ccccc2)c2ccccc2)C3)ccc1N , and I need its recorded normalised cell viability.
1.01

Field request: normalised cell viability | item: O=Nc1ccc2oc(=O)ccc2c1
1.02

Which measured normalised cell viability value corresponds to CC(=O)O[C@@]12CO[C@@H]1C[C@H](O)[C@@]1(C)C(=O)[C@H](O)C3=C(C)[C@@H](OC(=O)[C@H](O)[C@@H](NC(=O)OC(C)(C)C)c4ccccc4)C[C@@](O)([C@@H](OC(=O)c4ccccc4)[C@H]21)C3(C)C ?
0.163

Which value of normalised cell viability has been reported for N[C@@H](Cc1c[nH]c2ccccc12)C(=O)O in the records?
1.03

So what's the measured normalised cell viability for this one? CCCN(CCc1ccccc1)C1CCc2c(O)cccc2C1 (racemic) [(±)-PPHT hydrochloride]
0.969

Look up normalised cell viability for this molecule: CN(C)CCC(c1ccc(Br)cc1)c1ccccn1 (racemic) [(±)-Brompheniramine maleate]
1.03

Looking for the measured normalised cell viability of CO/N=C(\C(=O)N[C@@H]1C(=O)N2C(C(=O)O)=C(CSc3nc(=O)c(O)nn3C)CS[C@H]12)c1csc(N)n1 [Ceftriaxone sodium salt] , can you help?
0.995

normalised cell viability lookup needed for C#Cc1ccc2c(c1)C(=O)N(C)Cc1c(C(=O)OCCCOC(=O)c3ncn4c3CN(C)C(=O)c3cc(C#C)ccc3-4)ncn1-2 [Xli 093 hydrate] , thanks.
1.01

Give its normalised cell viability value. Item: N[C@H](C(=O)O)[C@H]1C[C@@H]1C(=O)O
0.979

Recorded normalised cell viability for CN1CCc2c(c3ccccc3n2Cc2ccc(C(=O)NO)cc2)C1 [Tubastatin A] , please?
0.983

// lookup normalised cell viability for S=C=Nc1cccc(NC(=S)NCCCCNC(=S)Nc2cccc(N=C=S)c2)c1
1.05

# get_value(readout='normalised cell viability', item= C=C/C(C)=C/[C@@]1(C)SC(=O)C(C)=C1O )
0.961

What does the data say about its normalised cell viability? Entry: FC(F)(F)c1cc(COC2CCCNC2c2ccccc2)cc(C(F)(F)F)c1 [L-733,060 hydrochloride]
0.843

# query: normalised cell viability of entry C/C(=C\c1csc(C)n1)[C@@H]1C[C@@H]2O[C@]2(C)CCC[C@H](C)[C@H](O)[C@@H](C)C(=O)C(C)(C)[C@@H](O)CC(=O)N1 [Ixabepilone]
0.146

Look up normalised cell viability: CC1(C)CNc2cc(NC(=O)c3cccnc3NCc3ccncc3)ccc21 [Motesanib Diphosphate]
1

What value of measured normalised cell viability is listed for CC(=O)NC(C(=O)O)C(C)(C)SN=O (configuration not stated) ?
1

Need normalised cell viability of O=C(/C=C/c1ccc(CN(CCO)CCc2c[nH]c3ccccc23)cc1)NO , thanks.
-0.000483

Requested read-out: normalised cell viability. Entry: Nc1cc(C(F)(F)F)c(-c2cc(N3CCOCC3)nc(N3CCOCC3)n2)cn1
0.203

Bench note: what normalised cell viability did c1ccc(C2CN3CCSC3=N2)cc1 (single isomer, unassigned; (-)) [(-)-Tetramisole hydrochloride] show?
1.01

normalised cell viability lookup needed for COc1cc(CC(=O)O)ccc1O [4-Hydroxy-3-methoxyphenylacetic acid] , thanks.
1.01

Requested read-out: normalised cell viability. Entry: COc1cc2c(cc1OC)-c1c/c(=N\c3c(C)cc(C)cc3C)n(C)c(=O)n1CC2 [Trequinsin hydrochloride]
1.02

Request the reported normalised cell viability associated with NC(Cc1cccc(-c2ccccc2CP(=O)(O)O)c1)C(=O)O (configuration not stated)
1.1

Can you look up the measured normalised cell viability of Nc1ncnc2c1c(-c1cccc(OCc3ccccc3)c1)cn2C1CC(CN2CCC2)C1 (configuration not stated) for me?
0.366

// returns reported normalised cell viability for input FC(F)c1nc2ccccc2n1-c1nc(N2CCOCC2)nc(N2CCOCC2)n1
0.627

For CN(C)CCCn1cc(C2=C(c3c[nH]c4ccccc34)C(=O)NC2=O)c2ccccc21 , what is its reported normalised cell viability?
1.06

For CC(=O)O[C@H]1C(=O)[C@@]2(C)[C@H]([C@H](OC(=O)c3ccccc3)[C@]3(O)C[C@H](OC(=O)[C@H](O)[C@@H](NC(=O)c4ccccc4)c4ccccc4)C(C)=C1C3(C)C)[C@]1(OC(C)=O)CO[C@@H]1C[C@@H]2O , what is its reported normalised cell viability?
1.03

Field request: normalised cell viability | item: CN1C2CCC1CC(NC(=O)c1nn(C)c3ccccc13)C2 (configuration not stated) [LY-278,584 maleate]
0.977

Fill blank: measured normalised cell viability of the molecule Cl.N[C@@H](CCC(=O)O)C(=O)O [L-Glutamic acid hydrochloride] is ____.
1

Consider the molecule shown here: CC(C)c1ccccc1Cc1cc(C(=O)Nc2ccc(S(=O)(=O)c3ccccc3C(C)(C)C)cc2)c(O)c(O)c1O What is its recorded normalised cell viability?
0.826

====

test system: NCI-H1944; assay: normalised cell viability (NPI; 0 = phenylarsine oxide control, 1 = DMSO control) (fraction of DMSO control); higher = more viable cells (less compound toxicity); conditions: glucocorticoid arm: vehicle; compound 1 µM; 6 days
Structures can show the parent of a compound that is named as a salt. The full ranking holds about 1,900 compounds; the median of “normalised cell viability (NPI; 0 = phenylarsine oxide control, 1 = DMSO control)” is about 1, and the lowest 2% start at about 0.039. For the sample, the lowest values were picked, then their nearest neighbours and some compounds at random.
Field: normalised cell viability. Provide a value for each of the compounds that follow.

Quick one: normalised cell viability of CN(C)C(=O)C(CCN1CCC(O)(c2ccc(Cl)cc2)CC1)(c1ccccc1)c1ccccc1 [Loperamide HCl] ?
1.02

Field request: normalised cell viability | item: O=c1[nH]c(=O)n([C@H]2C[C@H](O)[C@@H](CO)O2)cc1/C=C/Br [(E)-5-(2-Bromovinyl)-2'-deoxyuridine]
0.978

Entry N#C/C(=C/c1ccc(O)c(O)c1)C(=O)N1CCc2ccccc21 [Tyrphostin AG 528] has what normalised cell viability?
1

Recorded normalised cell viability for CCCCCCCCCCCCCCCC(=O)NCC(COP(=O)([O-])OCC[N+](C)(C)C)OCC (racemic) [rac-2-Ethoxy-3-hexadecanamido-1-propylphosphocholine] , please?
1.01

Which normalised cell viability reading was recorded for the compound O=C(CCCN1CCC(O)(c2ccc(Cl)cc2)CC1)c1ccc(F)cc1 [Haloperidol] ?
0.984

// normalised cell viability lookup, key: OC1(c2ccc(Cl)cc2)CCN(Cc2c[nH]c3ccccc23)CC1
0.975

Please give the measured normalised cell viability for this compound: CN(C)C(=O)C(CCN1CCC(O)(c2ccc(Cl)cc2)CC1)(c1ccccc1)c1ccccc1 [Loperamide hydrochloride]
1

Given the compound S=C=Nc1cccc(NC(=S)NCCCCNC(=S)Nc2cccc(N=C=S)c2)c1 , what is its reported normalised cell viability?
1.02

====

Would you kindly list normalised cell viability for each of these compounds?
system: NCI-H1944; experiment: normalised cell viability (NPI; 0 = phenylarsine oxide control, 1 = DMSO control) (fraction of DMSO control); NCI-H1944 is a non-small cell lung cancer line; higher = more viable cells (less compound toxicity); conditions: glucocorticoid arm: vehicle; compound 5 µM; 6 days
Structures can show the parent of a compound that is named as a salt. Over roughly 1,900 compounds, “normalised cell viability (NPI; 0 = phenylarsine oxide control, 1 = DMSO control)” has its median near 1; the lowest 2% begin near 0.039. The sample as a whole holds a higher share of the lowest values than the screen did.
Lab note: record the figure alone, no unit after it.

Query for NCI-H1944: what normalised cell viability does the record show for O=C(O)c1cc(O)c2ccc(Cl)cc2n1 ?
0.997

Recorded normalised cell viability for C=CCN1CCc2c(cc(O)c(O)c2Br)[C@@H](c2ccccc2)C1 [R(+)-6-Bromo-APB hydrobromide] with NCI-H1944, please?
0.983

Form field: normalised cell viability recorded for COC(=O)C[C@](O)(CCCC(C)(C)O)C(=O)O[C@@H]1C(OC)=C[C@]23CCCN2CCc2cc4c(cc2[C@H]13)OCO4 [Omacetaxine mepesuccinate] with NCI-H1944 (enter value)
1.02

So what normalised cell viability did O=C(CCCCCCC(=O)Nc1ccccc1)NO get with NCI-H1944?
0.998

Record lookup: for NCI-H1944, what normalised cell viability belongs to Nc1ccccc1NC(=O)c1ccc(CNC(=O)OCc2cccnc2)cc1 [Entinostat (MS-275)] ?
0.02

# value lookup — system NCI-H1944, readout normalised cell viability, item NC(Cc1cccc(-c2ccccc2CP(=O)(O)O)c1)C(=O)O (configuration not stated)
1.03

For the record S=C(S)N1CCCC1 [Ammonium pyrrolidinedithiocarbamate] , what value of normalised cell viability is listed for NCI-H1944?
0.416

Lab note: need normalised cell viability with NCI-H1944 for entry C[N+](C)(C)CCO.[Br-] [Choline bromide] , please look it up.
0.998

I'm curious: which normalised cell viability was measured for c1cc(CN2CCCNCCNCCCNCC2)ccc1CN1CCCNCCNCCCNCC1 tested on NCI-H1944?
1.01

Reported normalised cell viability for NCI-H1944, given Cc1[nH]c2ccccc2c1C1=C(NCCc2ccc(F)cc2)C(=O)N(C)C1=O ?
0.98

Form entry - test system: NCI-H1944; read-out: normalised cell viability; compound: Cc1c(CN2CCN(C(=O)[C@H](C)O)CC2)sc2c(N3CCOCC3)nc(-c3cnc(N)nc3)nc12
0.552

# returns recorded normalised cell viability (system: NCI-H1944) for CNCC[C@@H](Oc1ccc(C(F)(F)F)cc1)c1ccccc1 [R-(-)-Fluoxetine hydrochloride]
0.995

What is its normalised cell viability for NCI-H1944? Entry: CCN(CC)CCCC(C)Nc1ccnc2cc(Cl)ccc12 (configuration not stated) [Chloroquine diphosphate]
0.947

Lookup: normalised cell viability / NCI-H1944 / O=C(NCCO)c1ccc2c(c1)nc(Nc1cccc(Cl)c1)c1ccncc12
0.567

# value lookup — system NCI-H1944, readout normalised cell viability, item CC(=O)Nc1ccc(C(=O)Nc2ccccc2N)cc1
0.906

What reported normalised cell viability corresponds to C[C@H](O)[C@H](O)[C@H]1CNc2nc(N)[nH]c(=O)c2N1 [(6R)-5,6,7,8-Tetrahydro-L-biopterin dihydrochloride] on NCI-H1944?
1.02

Report normalised cell viability for COc1ccc(-c2nc(N3CCOCC3)c3sc(CN(C)c4ncc(C(=O)NO)cn4)cc3n2)cn1 tested on NCI-H1944.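 Also: CTB read-out in 384-well plates, triplicate wells, NPI normalised per plate against 1 µM phenylarsine oxide (0) and 0.1% DMSO (1) controls.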
0.000104
